# Henry solubility constant Hcp annotations
assay-name: Henry solubility constant Hcp at 298.15 K (mol/(m3 Pa))
measurement-context: reference: Ryu and Park (1999)

>  <smiles-str>
ClCCl

>  <Henry solubility constant Hcp>
0.0041

$$$$
>  <smiles-str>
ClC(Cl)=C(Cl)Cl

>  <Henry solubility constant Hcp>
0.00053

$$$$
>  <smiles-str>
Clc1ccccc1

>  <Henry solubility constant Hcp>
0.0019

$$$$
